- protocol_summary: chemical genetic growth profiling, strain panel (AID 1159580);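 further: tested at 20 µM; growth read once vehicle control cultures reached saturation at 30 °C; 1 = growth at the plate median or of vehicle wells; lower values mean less growth of the strain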
- settings: S. cerevisiae deletion strains, growth OD, locus YNL128W, strain TEP1, stronger effect = lower value
Among all 5,500 compounds or so, about 2,000 (36%) were called active. About 18% were inconclusive and are not listed. This is one part of the list.
For each entry below, report its normalized growth value.
Please give the numeric answer without any surrounding text.

### Prompt Bench note: what normalized growth did Cc1nn(-c2ccccc2)nc1C(=O)NC(=O)N1CCCC1 show?
### Response 0.991

### Prompt Recorded normalized growth of Cc1c(N(C)C)c(=O)n(-c2ccccc2)n1C , please.
### Response 0.983

### Prompt So what's the measured normalized growth for this one? Cc1ccc2c(c1)CC[C@H]1CC(=O)CC[C@]21C
### Response 1.01

### Prompt Given the entry Cc1ccc(Oc2ccc(C)cc2)cc1 , report its measured normalized growth.
### Response 0.995

### Prompt Returns the measured normalized growth for the input molecule. Input: NC(=NCCC[C@H](N)C(=O)O)NO
### Response 1

### Prompt // lookup normalized growth for C1CCc2nnnn2CC1
### Response 1.02

### Prompt Look up normalized growth: Cc1cc(=O)n2c(-c3ccc(Cl)cc3)csc2n1
### Response 0.972

Ref: PubChem BioAssay AID1159580
